Tested on: Fibroblast
Method description: Multiplex assay against human fibroblast
Assay type: toxicity, cell-based
Particulars: 12 h, 10 µM, compound concentration 10 uM, replicate 1
Please go through the items and note down their Population Pyknosed Nuclei (%).

So for Nc1nc(CC(=O)Nc2ccc(CCNC[C@H](O)c3ccccc3)cc2)cs1 [MIRABEGRON] , the logged Population Pyknosed Nuclei (%) turned out to be 9%

So for CCCCCCNC(=O)Nc1ccc(S(=O)(=O)Nc2ccc(CCNC[C@H](O)COc3ccc(O)cc3)cc2)cc1 [L-755507] , the logged Population Pyknosed Nuclei (%) turned out to be 10%

So for CC(C)C[C@H](CO)Nc1nc(S[C@@H](C)c2ccccc2)nc2nc(N)sc12 [AZD-8797] , the logged Population Pyknosed Nuclei (%) turned out to be 17%

So for CC(C)(O)C(=O)N1CCN(c2ccc(C(F)(F)F)c(C3=C(c4c[nH]c5ccccc45)C(=O)NC3=O)c2)CC1 , the logged Population Pyknosed Nuclei (%) turned out to be 32%

So for COc1c(Nc2ccc(S(C)(=O)=O)nc2C)ncnc1OC1CCN(C(=O)OC(C)C)CC1 [ADP-597] , the logged Population Pyknosed Nuclei (%) turned out to be 20%

So for CCc1nn2c(C)cc(C)nc2c1Cc1ccc(-c2nnc(C3CCNCC3)o2)cc1 , the logged Population Pyknosed Nuclei (%) turned out to be 18%

So for O=c1ccc2ccc(OCCCCN3CCN(c4cccc5sccc45)CC3)cc2[nH]1 [BREXPIPRAZOLE] , the logged Population Pyknosed Nuclei (%) turned out to be 19%

So for CN1CCN(c2ccc(Nc3c4ccccc4nc4ccccc34)cc2)CC1.Cl.Cl.O , the logged Population Pyknosed Nuclei (%) turned out to be 8%

So for O=c1nc2[nH]c3ccccc3nc-2c(=O)[nH]1 [ALLOXAZINE] , the logged Population Pyknosed Nuclei (%) turned out to be 15%

---

System: Fibroblast
Method description: Multiplex assay against human fibroblast
Type: toxicity, cell-based
Particulars: 48 h, 1 µM, compound concentration 1 uM, replicate 1
Non-standard residues stand in square brackets, D forms with d. Residues, ends and D or L forms follow the SMILES beside them.
Quantity name: Population Tubulin-Different-Phenotype (%)
Please reply with the bare figure in % and do not write the unit itself.

So for CC(C)C[C@@H]1NC(=O)[C@@H](C(C)C)NC(=O)[C@@H]2CCCN2C(=O)[C@@H](CC(=O)O)NC(=O)[C@@H](Cc2c[nH]c3ccccc23)NC1=O [BQ-123] (cyclo(L[dW][dD]P[dV])) , the logged Population Tubulin-Different-Phenotype (%) turned out to be 25

So for Cc1nn(C)c2nc(NNC(=O)Nc3cc(Cl)nc(Cl)c3)cc(C(C)C)c12 , the logged Population Tubulin-Different-Phenotype (%) turned out to be 30

So for OCCCNc1cc(-c2ccnc(Nc3cccc(Cl)c3)n2)ccn1 , the logged Population Tubulin-Different-Phenotype (%) turned out to be 66

So for COc1cc2nc(N3CCN(C(=O)COc4c(OC)cccc4C(C)C)CC3)nc(N)c2cc1OC.Cl.Cl , the logged Population Tubulin-Different-Phenotype (%) turned out to be 30

So for COc1c(Nc2ccc(S(C)(=O)=O)nc2C)ncnc1OC1CCN(C(=O)OC(C)C)CC1 , the logged Population Tubulin-Different-Phenotype (%) turned out to be 30

So for COc1ccc2c(c1OCc1ccccc1)C[C@@H](C(=O)O)N(C(=O)C(c1ccccc1)c1ccccc1)C2 , the logged Population Tubulin-Different-Phenotype (%) turned out to be 20

So for Cc1sc2c(c1C)C(c1ccc(Cl)cc1)=N[C@H](CC(=O)OC(C)(C)C)c1nnc(C)n1-2 , the logged Population Tubulin-Different-Phenotype (%) turned out to be 28

So for Cl.Cl.OCCOCCN1CCN(C(c2ccccc2)c2ccc(Cl)cc2)CC1 (stereo unspecified) [HYDROXYZINE HYDROCHLORIDE] , the logged Population Tubulin-Different-Phenotype (%) turned out to be 31

So for O=c1nc2[nH]c3ccccc3nc-2c(=O)[nH]1 , the logged Population Tubulin-Different-Phenotype (%) turned out to be 23

So for COc1cc(OC2CCN(C(C)=O)CC2)ccc1C(=O)N1CCC(N2C(=O)OCc3ccccc32)CC1 , the logged Population Tubulin-Different-Phenotype (%) turned out to be 35

So for CN1C[C@H](C(=O)N[C@]2(C)O[C@@]3(O)[C@@H]4CCCN4C(=O)[C@H](Cc4ccccc4)N3C2=O)C[C@@H]2c3cccc4[nH]cc(c34)C[C@H]21.CS(=O)(=O)O [DIHYDROERGOTAMINE MESYLATE] , the logged Population Tubulin-Different-Phenotype (%) turned out to be 30

So for CC(C)C[C@H](CO)Nc1nc(S[C@@H](C)c2ccccc2)nc2nc(N)sc12 , the logged Population Tubulin-Different-Phenotype (%) turned out to be 11

So for Nc1nc(CC(=O)Nc2ccc(CCNC[C@H](O)c3ccccc3)cc2)cs1 , the logged Population Tubulin-Different-Phenotype (%) turned out to be 28

So for Cc1cc(-c2ccc3c(c2)CC[C@H]3N2CC3(CCN(C(=O)Cc4cn5cc(C)sc5n4)CC3)C2)ncn1 , the logged Population Tubulin-Different-Phenotype (%) turned out to be 23

So for COc1cc(Nc2ncc3c(n2)-c2ccc(Cl)cc2C(c2c(F)cccc2OC)=NC3)ccc1C(=O)O , the logged Population Tubulin-Different-Phenotype (%) turned out to be 32

So for C[C@H](NC(=O)CNC(=O)c1cccc(Cl)c1)c1ccccc1 , the logged Population Tubulin-Different-Phenotype (%) turned out to be 26

---

Test system: HEK-293T
Method description: Multiplex assay against HEK293T
Format: toxicity, cell-based
Particulars: human, 48 h, 10 µM, compound concentration 10 uM, replicate 1
Please go through the items and note down their Population Membrane Permeable-Phenotype (%).
Please reply with the bare figure in % and do not write the unit itself.

So for Cc1cc(=O)n(C)c2cc(N3C(=O)CC[C@H](NS(=O)(=O)CC(C)C)[C@H]3c3ccc(Cl)cc3)ccc12 , the logged Population Membrane Permeable-Phenotype (%) turned out to be 1

So for Cc1sc2c(c1C)C(c1ccc(Cl)cc1)=N[C@H](CC(=O)OC(C)(C)C)c1nnc(C)n1-2 , the logged Population Membrane Permeable-Phenotype (%) turned out to be 0

So for O=C(O)CCC/C=C\CC1C(O)CC(O)C1/C=C/C(O)COc1cccc(Cl)c1 (configuration not stated) , the logged Population Membrane Permeable-Phenotype (%) turned out to be 0

So for C[C@H](NC(=O)CNC(=O)c1cccc(Cl)c1)c1ccccc1 , the logged Population Membrane Permeable-Phenotype (%) turned out to be 0

So for C=CCN1C[C@H](C(=O)N(CCCN(C)C)C(=O)NCC)C[C@@H]2c3cccc4[nH]cc(c34)C[C@H]21 , the logged Population Membrane Permeable-Phenotype (%) turned out to be 0

So for CN1C[C@H](C(=O)N[C@]2(C)O[C@@]3(O)[C@@H]4CCCN4C(=O)[C@H](Cc4ccccc4)N3C2=O)C[C@@H]2c3cccc4[nH]cc(c34)C[C@H]21.CS(=O)(=O)O [DIHYDROERGOTAMINE MESYLATE] , the logged Population Membrane Permeable-Phenotype (%) turned out to be 0

So for Cl.Cl.OCCOCCN1CCN(C(c2ccccc2)c2ccc(Cl)cc2)CC1 (configuration not stated) [HYDROXYZINE HYDROCHLORIDE] , the logged Population Membrane Permeable-Phenotype (%) turned out to be 0

So for Cc1nn(C)c2nc(NNC(=O)Nc3cc(Cl)nc(Cl)c3)cc(C(C)C)c12 , the logged Population Membrane Permeable-Phenotype (%) turned out to be 0

So for CCn1c(-c2nc3cc(C(=O)N4CCCC(N)C4)ccc3n2C)cc2ccccc21.Cl (configuration not stated) , the logged Population Membrane Permeable-Phenotype (%) turned out to be 0

So for CCCCC[C@H](O)/C=C/[C@H]1[C@H](O)CC(=O)[C@@H]1CCCCCCC(=O)O , the logged Population Membrane Permeable-Phenotype (%) turned out to be 1

So for Cn1cc(C(=O)OCC2CCN(CCNS(C)(=O)=O)CC2)c2ccccc21 , the logged Population Membrane Permeable-Phenotype (%) turned out to be 1

So for C[C@@H]1CC(=O)Nc2cccc(-c3ccc4c(c3)c(-c3cnn(C)c3)nn4C)c2N1 , the logged Population Membrane Permeable-Phenotype (%) turned out to be 0

So for CSc1nc(NC2CCCC2)c([N+](=O)[O-])c(NC2CCCC2)n1 , the logged Population Membrane Permeable-Phenotype (%) turned out to be 1

So for CN1CCN2c3ccccc3Cc3ccccc3C2C1.Cl (configuration not stated) [MIANSERIN HYDROCHLORIDE] , the logged Population Membrane Permeable-Phenotype (%) turned out to be 0

So for COc1cc2nc(N3CCN(C(=O)COc4c(OC)cccc4C(C)C)CC3)nc(N)c2cc1OC.Cl.Cl , the logged Population Membrane Permeable-Phenotype (%) turned out to be 3

So for Cc1c(Cc2ccc3ccccc3n2)c2cc(F)ccc2n1CC(=O)O , the logged Population Membrane Permeable-Phenotype (%) turned out to be 1

So for CC(F)(F)CN1CCOc2c(nn(-c3ccccc3Cl)c2-c2ccc(Cl)cc2)C1=O , the logged Population Membrane Permeable-Phenotype (%) turned out to be 0
